target: Serine/threonine-protein kinase pim-1 (Homo sapiens); further: in the data inactive means no Kd found up to 30 µM
Sequence (P11309 whole entry): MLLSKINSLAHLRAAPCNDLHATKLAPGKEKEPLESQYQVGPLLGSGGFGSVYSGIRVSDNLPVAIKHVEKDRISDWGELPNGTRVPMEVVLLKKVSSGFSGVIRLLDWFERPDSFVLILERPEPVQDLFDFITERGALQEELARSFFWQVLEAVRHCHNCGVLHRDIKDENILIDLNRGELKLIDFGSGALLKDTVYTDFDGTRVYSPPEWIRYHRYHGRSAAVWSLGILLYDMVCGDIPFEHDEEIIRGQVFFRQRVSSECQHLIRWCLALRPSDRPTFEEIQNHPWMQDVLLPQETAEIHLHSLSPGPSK
The source made the active and inactive calls.
What Kd was measured for each of the following?

input: Param readout= Kd; system= Serine/threonine-protein kinase pim-1 (Homo sapiens); entry= CC(=O)Nc1cccc(-n2c(=O)n(C3CC3)c(=O)c3c(Nc4ccc(I)cc4F)n(C)c(=O)c(C)c32)c1 [TRAMETINIB] ; returns value. Further: in the data inactive means no Kd found up to 30 µM.
output: > 30 µM (inactive)

input: Consider next the compound CNS(=O)(=O)Nc1nccc(Cc2c(C)c3ccc(Oc4ncccn4)cc3oc2=O)c1F [AVUTOMETINIB] in the same way.
output: > 30 µM (inactive)

input: Consider next the compound COc1cc2nccc(Oc3ccc(NC(=O)Nc4cc(C)on4)c(Cl)c3)c2cc1OC [TIVOZANIB] in the same way.
output: > 30 µM (inactive)

---

target: Mitogen-activated protein kinase 9 (Homo sapiens, UniProt P45984); further: in the data inactive means no Kd found up to 30 µM
Sequence (P45984 whole entry): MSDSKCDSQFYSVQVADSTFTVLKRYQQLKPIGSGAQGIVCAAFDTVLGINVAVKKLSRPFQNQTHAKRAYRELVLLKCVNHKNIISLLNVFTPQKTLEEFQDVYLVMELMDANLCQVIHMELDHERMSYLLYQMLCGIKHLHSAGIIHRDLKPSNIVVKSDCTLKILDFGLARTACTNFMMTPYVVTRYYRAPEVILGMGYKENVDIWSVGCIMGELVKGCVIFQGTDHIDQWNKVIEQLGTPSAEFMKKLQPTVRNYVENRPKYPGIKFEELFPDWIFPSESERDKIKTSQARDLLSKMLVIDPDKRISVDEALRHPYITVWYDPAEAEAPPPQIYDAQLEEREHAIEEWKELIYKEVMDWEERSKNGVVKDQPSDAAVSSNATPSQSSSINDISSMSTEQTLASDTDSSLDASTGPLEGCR
The source made the active and inactive calls.
API: response.call in 1 (active), 0 (inactive)

input: Dear all, I need the recorded test outcome for CC[C@@H]1C(=O)N(C)c2cnc(Nc3ccc(C(=O)N[C@H]4CC[C@H](N5CCN(CC6CC6)CC5)CC4)cc3OC)nc2N1C(C)C , thank you.
output: 0

input: Consider next the molecule COC(=O)N[C@@H](C)CNc1nccc(-c2cn(C(C)C)nc2-c2cc(Cl)cc(NS(C)(=O)=O)c2F)n1 in the same way.
output: 1

input: Consider next the molecule COc1cc2nccc(Oc3ccc(NC(=O)Nc4cc(C)on4)c(Cl)c3)c2cc1OC in the same way.
output: 0

input: Consider next the molecule COc1cc2nccc(Oc3ccc(NC(=O)NC4CC4)c(Cl)c3)c2cc1C(N)=O in the same way.
output: 0

---

molecular target: Glycogen synthase kinase-3 alpha (Homo sapiens); further: in the data inactive means no Kd found up to 30 µM
Sequence (P49840 whole entry): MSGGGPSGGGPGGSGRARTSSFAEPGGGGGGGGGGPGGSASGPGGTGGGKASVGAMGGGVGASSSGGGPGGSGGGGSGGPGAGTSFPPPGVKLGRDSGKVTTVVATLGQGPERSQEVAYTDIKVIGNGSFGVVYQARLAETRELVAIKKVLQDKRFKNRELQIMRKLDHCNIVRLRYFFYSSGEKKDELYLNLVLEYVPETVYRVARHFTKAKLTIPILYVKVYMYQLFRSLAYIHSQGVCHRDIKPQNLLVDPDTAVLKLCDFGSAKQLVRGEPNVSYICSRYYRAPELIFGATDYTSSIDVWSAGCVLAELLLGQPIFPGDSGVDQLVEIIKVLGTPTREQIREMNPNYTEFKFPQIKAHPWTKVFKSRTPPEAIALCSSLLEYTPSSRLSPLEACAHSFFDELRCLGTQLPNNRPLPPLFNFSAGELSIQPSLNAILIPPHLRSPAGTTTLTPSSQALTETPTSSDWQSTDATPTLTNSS
The source made the active and inactive calls.
API: response.call in 1 = active, 0 = inactive

input: Dear all, I need the recorded test outcome for C[C@@H](Nc1cc(F)cc(F)c1)c1cc(C(=O)N(C)C)cc2c(=O)cc(N3CCOCC3)oc12 [AZD-8186] , thank you.
output: 0

input: Consider next the compound CN1N=C(N)c2cn([C@@H]3O[C@H](COP(=O)(O)O)[C@@H](O)[C@H]3O)c3ncnc1c23 [TRICIRIBINE PHOSPHATE] in the same way.
output: 0

input: Consider next the compound O=c1sn(-c2cccc3ccccc23)c(=O)n1Cc1ccccc1 [TIDEGLUSIB] in the same way.
output: 0

input: Consider next the compound CNS(=O)(=O)Nc1nccc(Cc2c(C)c3ccc(Oc4ncccn4)cc3oc2=O)c1F [AVUTOMETINIB] in the same way.
output: 0

input: Consider next the compound CCN1CCN(Cc2ccc(-c3cc4c(N[C@H](C)c5ccccc5)ncnc4[nH]3)cc2)CC1 [AEE-788] in the same way.
output: 0

input: Consider next the compound Cc1ccc(-n2nc(C(C)(C)C)cc2NC(=O)NCc2cc(F)ccc2Oc2ccc3c(cnn3CCO)c2)cc1 [PEXMETINIB] in the same way.
output: 0

input: Consider next the compound C1=C/COCc2cc(ccc2OCCN2CCCC2)Nc2nccc(n2)-c2cccc(c2)COC/1 [PACRITINIB] in the same way.
output: 1

input: Consider next the compound Cc1cc(-c2cc(O)ccc2Cl)cc2nnc(Nc3ccc(OCCN4CCCC4)cc3)nc12 in the same way.
output: 0

---

Ribosomal protein S6 kinase alpha-4 (Homo sapiens, UniProt O75676) Kd data; further: in the data inactive means no Kd found up to 30 µM
Sequence (O75676 whole entry): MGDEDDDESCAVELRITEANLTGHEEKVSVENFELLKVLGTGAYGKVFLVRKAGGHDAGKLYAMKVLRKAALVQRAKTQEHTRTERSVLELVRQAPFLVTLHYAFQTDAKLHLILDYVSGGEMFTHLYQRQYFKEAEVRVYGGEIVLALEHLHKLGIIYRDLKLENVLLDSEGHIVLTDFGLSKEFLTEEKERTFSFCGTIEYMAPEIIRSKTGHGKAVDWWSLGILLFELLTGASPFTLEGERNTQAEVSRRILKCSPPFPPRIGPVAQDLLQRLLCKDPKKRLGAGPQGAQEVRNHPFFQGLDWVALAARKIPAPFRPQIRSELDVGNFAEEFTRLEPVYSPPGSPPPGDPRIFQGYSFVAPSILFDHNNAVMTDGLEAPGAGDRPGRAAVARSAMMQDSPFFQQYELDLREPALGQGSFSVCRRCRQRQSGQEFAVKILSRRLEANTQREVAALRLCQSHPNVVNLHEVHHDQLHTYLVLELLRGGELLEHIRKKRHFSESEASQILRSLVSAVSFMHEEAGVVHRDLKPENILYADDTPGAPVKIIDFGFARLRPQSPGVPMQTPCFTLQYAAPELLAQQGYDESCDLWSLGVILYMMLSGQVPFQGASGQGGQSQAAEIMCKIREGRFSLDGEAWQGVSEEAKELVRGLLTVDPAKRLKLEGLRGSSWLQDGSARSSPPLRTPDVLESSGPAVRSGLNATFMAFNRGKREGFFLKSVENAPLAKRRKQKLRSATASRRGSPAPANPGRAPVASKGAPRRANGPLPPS
Active and inactive are the calls of the source.

input: Form field: reported Kd of CC[C@@H]1C(=O)N(C)c2cnc(Nc3ccc(C(=O)N[C@H]4CC[C@H](N5CCN(CC6CC6)CC5)CC4)cc3OC)nc2N1C(C)C [VOLASERTIB]
output: > 30 µM (inactive)

input: Consider next the molecule CCc1cnn2c(NCc3ccc[n+]([O-])c3)cc(N3CCCC[C@H]3CCO)nc12 [DINACICLIB] in the same way.
output: > 30 µM (inactive)

input: Consider next the molecule COC(=O)N[C@@H](C)CNc1nccc(-c2cn(C(C)C)nc2-c2cc(Cl)cc(NS(C)(=O)=O)c2F)n1 [ENCORAFENIB] in the same way.
output: > 30 µM (inactive)

input: Consider next the molecule Cn1cc(-c2ccc(F)c(C(F)(F)F)c2)nc1C1CCN(c2ncnc3[nH]ncc23)CC1 [LY-2584702] in the same way.
output: > 30 µM (inactive)

input: Consider next the molecule C[C@@H](Nc1cc(F)cc(F)c1)c1cc(C(=O)N(C)C)cc2c(=O)cc(N3CCOCC3)oc12 [AZD-8186] in the same way.
output: > 30 µM (inactive)

input: Consider next the molecule Cn1cc(-c2ccc3nnc(C(F)(F)c4ccc5ncccc5c4)n3n2)cn1 [JNJ-38877605] in the same way.
output: > 30 µM (inactive)

input: Consider next the molecule COc1cc(OC)c(/C=C/S(=O)(=O)Cc2ccc(OC)c(NCC(=O)O)c2)c(OC)c1 [RIGOSERTIB] in the same way.
output: > 30 µM (inactive)

input: Consider next the molecule CNC(=O)CN1CCC(Oc2cc3c(Nc4cccc(Cl)c4F)ncnc3cc2OC)CC1 [SAPITINIB] in the same way.
output: > 30 µM (inactive)

input: Consider next the molecule Cc1cc2c(F)c(Oc3ncnn4cc(OC[C@@H](C)OC(=O)[C@H](C)N)c(C)c34)ccc2[nH]1 [BRIVANIB ALANINATE] in the same way.
output: > 30 µM (inactive)

input: Consider next the molecule COc1ccc(-c2ccc3c(N4CCOC[C@@H]4C)nc(N4CCOC[C@@H]4C)nc3n2)cc1CO [AZD-8055] in the same way.
output: > 30 µM (inactive)

input: Consider next the molecule OCCn1cc(-c2cnc3nnn(Cc4ccc5ncccc5c4)c3n2)cn1 [PF-04217903] in the same way.
output: > 30 µM (inactive)

input: Consider next the molecule Cc1cc(-c2cc(O)ccc2Cl)cc2nnc(Nc3ccc(OCCN4CCCC4)cc3)nc12 in the same way.
output: > 30 µM (inactive)

input: Consider next the molecule Cc1cc(Nc2cc(N3CCN(C)CC3)nc(/C=C/c3ccccc3)n2)n[nH]1 [ENMD-2076] in the same way.
output: > 30 µM (inactive)

input: Consider next the molecule C[C@@H](c1ccc2nccn2c1)n1nnc2ncc(-c3cnn(C)c3)nc21 [SAVOLITINIB] in the same way.
output: > 30 µM (inactive)

input: Consider next the molecule CN1CCC(COc2cnc(-c3cccc(Cn4nc(-c5cccc(C#N)c5)ccc4=O)c3)nc2)CC1 [TEPOTINIB] in the same way.
output: > 30 µM (inactive)

input: Consider next the molecule C1=C/COCc2cc(ccc2OCCN2CCCC2)Nc2nccc(n2)-c2cccc(c2)COC/1 [PACRITINIB] in the same way.
output: > 30 µM (inactive)

---

target: Mitogen-activated protein kinase kinase kinase kinase 4 (Homo sapiens); further: in the data inactive means no Kd found up to 30 µM
Sequence (O95819 whole entry): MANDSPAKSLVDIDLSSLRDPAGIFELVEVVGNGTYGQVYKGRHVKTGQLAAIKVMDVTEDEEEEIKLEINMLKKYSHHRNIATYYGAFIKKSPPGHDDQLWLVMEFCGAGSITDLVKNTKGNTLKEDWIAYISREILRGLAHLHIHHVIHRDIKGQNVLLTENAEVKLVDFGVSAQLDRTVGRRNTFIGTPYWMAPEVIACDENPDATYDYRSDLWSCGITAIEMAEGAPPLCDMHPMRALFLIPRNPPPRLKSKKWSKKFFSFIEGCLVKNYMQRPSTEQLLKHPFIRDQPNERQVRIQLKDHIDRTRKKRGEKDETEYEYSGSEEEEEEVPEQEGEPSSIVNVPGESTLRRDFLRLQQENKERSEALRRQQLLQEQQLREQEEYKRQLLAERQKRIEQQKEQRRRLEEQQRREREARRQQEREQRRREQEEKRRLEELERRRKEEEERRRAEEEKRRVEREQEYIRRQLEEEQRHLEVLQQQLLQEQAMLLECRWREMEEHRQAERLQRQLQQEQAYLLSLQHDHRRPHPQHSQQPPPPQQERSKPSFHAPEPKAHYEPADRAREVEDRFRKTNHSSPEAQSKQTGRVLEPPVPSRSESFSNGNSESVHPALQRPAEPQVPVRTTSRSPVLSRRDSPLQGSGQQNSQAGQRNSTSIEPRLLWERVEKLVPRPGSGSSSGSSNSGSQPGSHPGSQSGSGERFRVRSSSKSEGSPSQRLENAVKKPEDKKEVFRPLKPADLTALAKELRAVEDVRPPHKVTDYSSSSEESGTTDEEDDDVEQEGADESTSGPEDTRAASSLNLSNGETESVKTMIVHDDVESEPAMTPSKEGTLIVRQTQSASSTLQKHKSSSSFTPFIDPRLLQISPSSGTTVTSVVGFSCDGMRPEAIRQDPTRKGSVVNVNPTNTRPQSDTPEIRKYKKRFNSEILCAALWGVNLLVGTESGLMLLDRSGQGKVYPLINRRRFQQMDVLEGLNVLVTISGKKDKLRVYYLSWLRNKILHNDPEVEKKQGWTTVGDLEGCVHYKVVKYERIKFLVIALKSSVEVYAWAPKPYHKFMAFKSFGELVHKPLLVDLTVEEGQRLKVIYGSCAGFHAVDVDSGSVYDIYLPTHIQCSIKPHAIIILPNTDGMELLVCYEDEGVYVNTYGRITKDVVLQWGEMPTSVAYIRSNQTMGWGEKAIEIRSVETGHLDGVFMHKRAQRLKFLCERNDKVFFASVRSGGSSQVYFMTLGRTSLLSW
Active and inactive are the calls of the source.
API: response.call in active, inactive

input: Dear all, I need the recorded test outcome for C[C@@H](Nc1cc(F)cc(F)c1)c1cc(C(=O)N(C)C)cc2c(=O)cc(N3CCOCC3)oc12 , thank you.
output: inactive

input: Consider next the compound CC[C@@H]1C(=O)N(C)c2cnc(Nc3ccc(C(=O)N[C@H]4CC[C@H](N5CCN(CC6CC6)CC5)CC4)cc3OC)nc2N1C(C)C in the same way.
output: inactive

input: Consider next the compound CNC(=O)CN1CCC(Oc2cc3c(Nc4cccc(Cl)c4F)ncnc3cc2OC)CC1 in the same way.
output: inactive

input: Consider next the compound CNC(=O)c1cc(Oc2ccc(NC(=O)Nc3ccc(Cl)c(C(F)(F)F)c3)c(F)c2)ccn1 in the same way.
output: inactive

input: Consider next the compound COc1cc2nccc(Oc3ccc(NC(=O)Nc4cc(C)on4)c(Cl)c3)c2cc1OC in the same way.
output: inactive

input: Consider next the compound Cc1cc([C@@H](C)Nc2ccccc2C(=O)O)c2nc(N3CCOCC3)cc(=O)n2c1 in the same way.
output: inactive

input: Consider next the compound C1=C/COCc2cc(ccc2OCCN2CCCC2)Nc2nccc(n2)-c2cccc(c2)COC/1 in the same way.
output: active

input: Consider next the compound C=CC(=O)N1CCC(Oc2cc3c(Nc4ccc(Cl)c(Cl)c4F)ncnc3cc2OC)CC1 in the same way.
output: inactive

input: Consider next the compound CN1CC[C@@H](c2c(O)cc(O)c3c(=O)cc(-c4ccccc4Cl)oc23)[C@@H]1CO in the same way.
output: inactive

input: Consider next the compound CNS(=O)(=O)Nc1nccc(Cc2c(C)c3ccc(Oc4ncccn4)cc3oc2=O)c1F in the same way.
output: inactive

input: Consider next the compound CC[C@H](Nc1ncnc2[nH]cnc12)c1nc2cccc(F)c2c(=O)n1-c1ccccc1 in the same way.
output: inactive

input: Consider next the compound COc1cc2nccc(Oc3ccc(NC(=O)NC4CC4)c(Cl)c3)c2cc1C(N)=O in the same way.
output: inactive

input: Consider next the compound CN(C)C(=O)c1cc2cnc(Nc3ccc(N4CCNCC4)cn3)nc2n1C1CCCC1 in the same way.
output: inactive

input: Consider next the compound Cc1ccc(S(=O)(=O)Nc2nc3ccccc3nc2Nc2ccc3nsnc3c2)cc1 in the same way.
output: inactive

input: Consider next the compound COC(=O)[C@@]1(O)C[C@H]2O[C@]1(C)n1c3ccccc3c3c4c(c5c6ccccc6n2c5c31)C(=O)NC4 [K-252A] in the same way.
output: active

input: Consider next the compound Cn1cc(-c2ccc3nnc(C(F)(F)c4ccc5ncccc5c4)n3n2)cn1 in the same way.
output: inactive

input: Consider next the compound CCn1c(=O)c(-c2cc[nH]n2)cc2c(C)nc(N)nc21 in the same way.
output: inactive
